Target: T1, IL-6R on human myeloma U266B1 cells (human, UniProt P08887 20-468)
T1 construct: whole, on cells; Also used as target of the cell-based functional assays (TF-1 proliferation); also called IL-6R on U266B1 cells expressing IL-6R; cell-surface IL-6R
T1 sequence (looked up): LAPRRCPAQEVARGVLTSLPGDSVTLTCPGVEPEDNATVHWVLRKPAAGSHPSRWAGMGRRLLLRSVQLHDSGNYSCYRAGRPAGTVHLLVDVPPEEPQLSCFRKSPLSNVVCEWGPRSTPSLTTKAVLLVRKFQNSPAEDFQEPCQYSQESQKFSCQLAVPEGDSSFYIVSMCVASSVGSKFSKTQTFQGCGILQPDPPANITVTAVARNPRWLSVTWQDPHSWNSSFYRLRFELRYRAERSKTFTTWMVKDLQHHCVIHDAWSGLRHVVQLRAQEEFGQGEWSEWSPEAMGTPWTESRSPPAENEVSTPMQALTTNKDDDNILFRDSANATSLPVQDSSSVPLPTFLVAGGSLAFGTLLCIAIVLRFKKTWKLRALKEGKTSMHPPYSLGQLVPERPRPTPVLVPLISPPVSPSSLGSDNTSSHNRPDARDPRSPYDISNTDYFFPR
Test: FACS binding to IL-6R on U266B1 cells
readoutType: EC50 (mg/L)
Respond with the bare value in mg/L.

Illustrative cases are given below, each with its answer.
{"columns": ["binder", "readoutType", "observed"],
 "data": [
  ["clone 40 rabbit anti-IL-6R antibody (antibody, V domains shown) VH: QSLEESGGRLVSPGGSLTLTCTVSGVDLNTYAMGWVRQAPGKGLECIGVILGSGTTYYANWAKGRFTISKTSSTTVDLKMTNLTAADTATYFCAGDRYGSLEEVITPYFDLWGPGILVTVSS VL: DVVMTQTPASVEAAVGGTVTIKCQASQNIYNNLAWYQQKPAQPPKLLIYSASTLESGVPSRFKGSGSGTGYTLTISDLECADAATYYCQSAYYTSYIDHNVFGGGTEVVVE", "EC50", 0.0573],
  ["clone 42 rabbit anti-IL-6R antibody (antibody, V domains shown) VH: QSVEESGGRLVTPGTPLTLTCTVSGFSLSNYWMSWVRQAPGKGLEWIAFIGGGNTFYASWAKGRFTISKTSSTTVDLSMPSPTTEDTATYFCARGYGAPGYDLWGQGTLVTVSL VL: AIVMTQTPSSKSVPVGDTVTINCQASESVYTNNRLSWYQQKPGQPPKLLIYYASTLASGVPSRFKGSGSGTQFTLTISDVVCDNAATYYCVGYKSSDGDGTAFGGGTEVVVK", "EC50", 0.0961]
]}

Query: Look up EC50 for this binder: clone 37 rabbit anti-IL-6R antibody (antibody, V domains shown) VH: QSLEESGGRLVTPGTPLTLTCTVSGIDLSRYWMSWVRQAPGKGLEWIGMISGGNTWYASWAKGRFTISGTSTTVDLKIISPTTADTATYFCARGIDTGIATTFNLWGPGTLVTVSS VL: AQVLTQTPSSVSAAVGGTVTISCQSSQSVYSNNRLSWFQQKPGQPPKLLIYYTSTLASGVPSRFKGSGSGTQFTLTISDLECDDAATYYCQGYYSGVINVFGGGTEVVVK
Result: 0.0331
